Data credit: ChEMBL document CHEMBL1629585

test system: Klebsiella pneumoniae; experiment: Antibacterial activity against Klebsiella pneumoniae B expressing CTX-M group 1 beta-lactamase by Etest method; assay type: functional
# if measured MIC < 10 µg/mL: criterion met  # else: criterion not met

Compound	Class
CO/N=C(\C(=O)N[C@@H]1C(=O)N2C(C(=O)O)=C(COC(C)=O)CS[C@H]12)c1csc(N)n1	criterion not met
CC(C)(O/N=C(\C(=O)N[C@@H]1C(=O)N2C(C(=O)[O-])=C(C[n+]3ccccc3)CS[C@H]12)c1csc(N)n1)C(=O)O	criterion not met
CC1(C)S[C@@H]2[C@H](NC(=O)[C@H](N)c3ccc(O)cc3)C(=O)N2[C@H]1C(=O)O	criterion not met
C[C@@H](O)[C@H]1C(=O)N2C(C(=O)O)=C(SCCNC=N)C[C@H]12 [IMIPENEM ANHYDROUS]	criterion met
CO/N=C(\C(=O)N[C@@H]1C(=O)N2C(C(=O)[O-])=C(C[N+]3(C)CCCC3)CS[C@H]12)c1csc(N)n1	criterion not met
NC[C@H]1O[C@H](O[C@H]2[C@H](O)[C@@H](O[C@H]3O[C@H](CO)[C@@H](O)[C@H](N)[C@H]3O)[C@H](N)C[C@@H]2N)[C@H](N)C[C@@H]1O	criterion not met
NCC[C@H](O)C(=O)N[C@@H]1C[C@H](N)[C@@H](O[C@H]2O[C@H](CN)[C@@H](O)[C@H](O)[C@H]2O)[C@H](O)[C@H]1O[C@H]1O[C@H](CO)[C@@H](O)[C@H](N)[C@H]1O	criterion met
CO[C@@]1(NC(=O)Cc2cccs2)C(=O)N2C(C(=O)O)=C(COC(N)=O)CS[C@@H]21	criterion met

---

test system: Klebsiella pneumoniae; test: Antibacterial activity against Klebsiella pneumoniae expressing CTX-M group 1 beta-lactamase by Etest method; type: functional
Recorded measurements of MIC90, one per entry
Reported endpoint: MIC90

In [3]: df
Out[3]:
                                   compound  assay_value
0  CC1(C)S[C@@H]2[C@H](NC(=O)[C@H](N)c3ccc(O)cc3)C(=O)N2[C@H]1C(=O)O [AMOXICILLIN]  > 256 µg/mL
1  O=C(O)c1cn(C2CC2)c2cc(N3CCNCC3)c(F)cc2c1=O [CIPROFLOXACIN]   > 32 µg/mL
2  CO/N=C(\C(=O)N[C@@H]1C(=O)N2C(C(=O)O)=C(COC(C)=O)CS[C@H]12)c1csc(N)n1 [CEFOTAXIME]  > 256 µg/mL
